Source: patent US20240010721A1

Reported kon values follow for various binders
molecular target: ROR1 (antigen of the KD determination and of the Octet dissociation measurement) (UniProt Q01973 30-403, limits assumed); test: method not stated (conventional procedures)
Sequence (Q01973 30-403 limits assumed): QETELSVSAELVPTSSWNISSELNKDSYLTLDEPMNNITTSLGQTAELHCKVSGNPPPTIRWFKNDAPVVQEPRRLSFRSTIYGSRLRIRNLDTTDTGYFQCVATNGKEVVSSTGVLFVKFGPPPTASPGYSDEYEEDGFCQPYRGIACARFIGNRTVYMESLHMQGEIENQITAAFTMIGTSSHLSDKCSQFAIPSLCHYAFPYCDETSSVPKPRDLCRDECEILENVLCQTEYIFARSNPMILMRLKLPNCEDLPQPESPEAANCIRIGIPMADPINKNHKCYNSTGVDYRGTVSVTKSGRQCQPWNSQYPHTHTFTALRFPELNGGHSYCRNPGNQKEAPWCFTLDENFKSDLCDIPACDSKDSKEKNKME
Write the value in M⁻¹ s⁻¹ as a bare number.

- binder: "PR001356 (antibody, human IgG1, kappa, V domains shown, fully human IgG1, kappa; also called anti-ROR1 1015M2-E6 hIgG1; PR001356(WT)) VH: QVQLVESGGGVVQPGRSLRLSCAASGFTFSSYGMHWVRQAPGKGLEWVAVAWYDGVSEDYADSVKGRFTISRDNAKNTLYLQMNSLRAEDTAVYYCAREQARSFDLWGRGTLVTVSS VL: DIVMTQSPSTLSASVGDRVTITCRASQSINNWLAWYQQKPGKAPKLLIYKASSLESGVPSRFSGSGSGTEFTLTISSLQPDDFATYYCQQYKSYSPMYTFGQGTKVEIKR"
  kon (M⁻¹ s⁻¹): 354000

Now consider a different binder.
**Query** What value of measured kon is listed for PR001371 (antibody, human IgG1, kappa, V domains shown, fully human IgG1, kappa) VH: QVQLVESGGGVVQPGRSLRLSCAASGFTFSSYGMLWVRQAPGKGLEWVAVAWYDGVSEDYADSVKGRFTISRDNSMNTLSLQMNSLRAEDTAVYYCAREQARSFDLWGRGTLVTVSS VL: DIQLTQSPSSLSASVGDRVTITCRASQTINNWLAWYQQKPGKAPKLLIYKASSLESGVPSRFSGSGSGTEFTLTISSLQPDDFATYYCQQYNSYSPMYTFGQGTKVEIKR ?
**Result** 298000
